Biological target: T1, Macaca fascicularis IL2Rγ extracellular domain expressed with a C-terminal myc-myc-hexahistidine tag (Macaca fascicularis)
T1 construct: also called mfIL-2Rg-MMH; mfIL-2RG-MMH
T1 chain: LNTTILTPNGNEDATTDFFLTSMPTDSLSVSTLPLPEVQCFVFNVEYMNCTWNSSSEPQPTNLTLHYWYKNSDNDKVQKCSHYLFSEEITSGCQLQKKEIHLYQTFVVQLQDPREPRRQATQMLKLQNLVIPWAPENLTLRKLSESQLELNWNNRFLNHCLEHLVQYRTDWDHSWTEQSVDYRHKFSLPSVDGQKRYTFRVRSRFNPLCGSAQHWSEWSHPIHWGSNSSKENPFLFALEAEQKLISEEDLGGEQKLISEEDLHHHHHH
Assay: SPR Biacore 4000, mAb captured by anti-hFc, 37C, dissociation in PBS-T pH 6.0
measure: 100 nM Ag Bound (RU)
Report the figure along with its unit, number first.

[[record]]
binder = "H4H12874P (antibody, human IgG4 S228P, kappa, V domains shown, anti-IL2Rγ monoclonal antibody expressed with human IgG4 Fc) VH: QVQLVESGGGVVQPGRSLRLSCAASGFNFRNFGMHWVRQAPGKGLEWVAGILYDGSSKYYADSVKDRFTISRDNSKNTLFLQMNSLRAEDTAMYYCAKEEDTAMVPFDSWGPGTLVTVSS VL: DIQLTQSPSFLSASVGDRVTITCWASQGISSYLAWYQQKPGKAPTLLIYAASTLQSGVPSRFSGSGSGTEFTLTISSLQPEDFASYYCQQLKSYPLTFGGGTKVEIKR"
assayresult = "82 RU"


// each listed binder needs a value for 100 nM Ag Bound (RU)
1. H4H12871P (antibody, human IgG4 S228P, kappa, V domains shown, anti-IL2Rγ monoclonal antibody expressed with human IgG4 Fc; also called REGN9434) VH: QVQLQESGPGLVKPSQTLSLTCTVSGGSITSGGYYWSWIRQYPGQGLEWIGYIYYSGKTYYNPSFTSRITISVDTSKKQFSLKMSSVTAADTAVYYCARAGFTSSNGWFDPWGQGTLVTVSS VL: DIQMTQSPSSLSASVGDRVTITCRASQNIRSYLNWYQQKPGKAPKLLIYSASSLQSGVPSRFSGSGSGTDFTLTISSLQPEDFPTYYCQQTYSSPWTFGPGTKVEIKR
2. H4H12884P (antibody, human IgG4 S228P, kappa, V domains shown, anti-IL2Rγ monoclonal antibody expressed with human IgG4 Fc) VH: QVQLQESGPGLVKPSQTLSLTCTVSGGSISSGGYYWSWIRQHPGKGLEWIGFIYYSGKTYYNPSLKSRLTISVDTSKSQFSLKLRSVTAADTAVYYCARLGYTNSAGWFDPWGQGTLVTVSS VL: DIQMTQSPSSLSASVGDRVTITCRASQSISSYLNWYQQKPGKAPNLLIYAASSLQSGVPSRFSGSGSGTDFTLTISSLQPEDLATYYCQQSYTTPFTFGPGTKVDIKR
3. H4H12858P (antibody, human IgG4 S228P, kappa, V domains shown, anti-IL2Rγ monoclonal antibody expressed with human IgG4 Fc; also called REGN9433) VH: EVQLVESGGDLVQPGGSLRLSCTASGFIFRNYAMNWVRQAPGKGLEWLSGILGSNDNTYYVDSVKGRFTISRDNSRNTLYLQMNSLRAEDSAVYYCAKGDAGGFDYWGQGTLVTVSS VL: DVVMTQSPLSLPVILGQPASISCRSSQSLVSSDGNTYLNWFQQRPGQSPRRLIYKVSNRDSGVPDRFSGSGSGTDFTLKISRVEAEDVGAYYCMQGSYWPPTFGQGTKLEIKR
4. H4H12863P (antibody, human IgG4 S228P, kappa, V domains shown, anti-IL2Rγ monoclonal antibody expressed with human IgG4 Fc) VH: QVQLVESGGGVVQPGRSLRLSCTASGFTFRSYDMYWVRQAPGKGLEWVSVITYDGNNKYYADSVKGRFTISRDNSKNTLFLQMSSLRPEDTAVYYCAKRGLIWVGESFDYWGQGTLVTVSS VL: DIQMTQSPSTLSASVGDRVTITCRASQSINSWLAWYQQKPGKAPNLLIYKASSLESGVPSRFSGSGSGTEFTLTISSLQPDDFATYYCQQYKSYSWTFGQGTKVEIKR
5. H4H12890P (antibody, human IgG4 S228P, kappa, V domains shown, anti-IL2Rγ monoclonal antibody expressed with human IgG4 Fc) VH: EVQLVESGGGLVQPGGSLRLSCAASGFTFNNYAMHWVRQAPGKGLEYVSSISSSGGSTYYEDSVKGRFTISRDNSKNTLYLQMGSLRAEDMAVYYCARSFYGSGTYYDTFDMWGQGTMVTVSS VL: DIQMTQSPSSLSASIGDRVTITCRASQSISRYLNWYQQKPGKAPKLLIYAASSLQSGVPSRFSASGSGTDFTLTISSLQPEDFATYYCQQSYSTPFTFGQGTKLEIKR
6. H4H12899P (antibody, human IgG4 S228P, kappa, V domains shown, anti-IL2Rγ monoclonal antibody expressed with human IgG4 Fc) VH: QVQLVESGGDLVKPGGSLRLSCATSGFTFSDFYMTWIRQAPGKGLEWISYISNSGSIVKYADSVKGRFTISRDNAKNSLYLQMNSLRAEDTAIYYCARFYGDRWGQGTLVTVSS VL: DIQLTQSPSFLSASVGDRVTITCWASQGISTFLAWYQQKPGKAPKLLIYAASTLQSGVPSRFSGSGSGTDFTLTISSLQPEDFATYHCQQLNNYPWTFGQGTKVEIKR
7. H4H13538P (antibody, human IgG4 S228P, kappa, V domains shown, anti-IL2Rγ monoclonal antibody expressed with human IgG4 Fc) VH: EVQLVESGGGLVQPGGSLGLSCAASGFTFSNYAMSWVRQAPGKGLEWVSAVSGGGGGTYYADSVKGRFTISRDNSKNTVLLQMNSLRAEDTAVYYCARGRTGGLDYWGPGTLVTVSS VL: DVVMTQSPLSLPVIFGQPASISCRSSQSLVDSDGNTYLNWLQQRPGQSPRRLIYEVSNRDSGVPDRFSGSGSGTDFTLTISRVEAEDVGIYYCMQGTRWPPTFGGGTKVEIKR

Result:
141 RU
135 RU
134 RU
141 RU
71 RU
122 RU
122 RU

// each listed binder needs a value for 100 nM Ag Bound (RU)
1. H4H12889P (antibody, human IgG4 S228P, kappa, V domains shown, anti-IL2Rγ monoclonal antibody expressed with human IgG4 Fc; also called REGN7257) VH: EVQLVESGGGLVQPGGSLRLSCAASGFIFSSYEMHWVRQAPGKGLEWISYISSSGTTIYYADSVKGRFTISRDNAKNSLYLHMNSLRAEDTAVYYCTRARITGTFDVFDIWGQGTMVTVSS VL: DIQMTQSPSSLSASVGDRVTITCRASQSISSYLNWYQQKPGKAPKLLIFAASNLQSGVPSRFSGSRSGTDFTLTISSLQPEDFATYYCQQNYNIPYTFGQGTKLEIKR
2. H4H12886P (antibody, human IgG4 S228P, kappa, V domains shown, anti-IL2Rγ monoclonal antibody expressed with human IgG4 Fc) VH: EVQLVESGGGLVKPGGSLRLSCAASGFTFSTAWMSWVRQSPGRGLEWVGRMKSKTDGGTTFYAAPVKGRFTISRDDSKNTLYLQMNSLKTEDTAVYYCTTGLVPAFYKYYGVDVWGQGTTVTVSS VL: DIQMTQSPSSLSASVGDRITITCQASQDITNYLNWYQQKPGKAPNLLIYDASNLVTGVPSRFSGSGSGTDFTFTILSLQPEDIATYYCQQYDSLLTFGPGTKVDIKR

Result:
148 RU
109 RU

Attribution: patent US20200247894A1
